experimental-context: 308.15 K; 101.33 kPa; Liquid; Vibrating tube method
Response field label takes yes when mass density is strictly below 800 kg/m3 and no in all other cases.

{"columns": ["test-smiles", "category-label"],
 "data": [
  ["CCCCCCCC", "yes"],
  ["CCCCCC", "yes"],
  ["COCCOC", "no"],
  ["CCCCCCCCCCCC", "yes"],
  ["C1CCCCC1", "yes"]
]}
